Assay: Half life period of the compound.
Format: ADME
Outcome: MET for half-life of at least 20 min; NOT MET for anything lower.

Task item: // inclusive: half-life at least 20 min? input: "COC1(CN(CC(=O)N(C)CCc2ccccn2)C(=O)C[C@@H](Cc2csc(N)n2)C(=O)N[C@@H](CC2CCCCC2)[C@@H](O)[C@@H](O)CC(C)C)CCCCC1"
Reply: NOT MET

Task item: I'd appreciate it if you could say whether "CC(C)C[C@H](O)[C@H](O)[C@H](CC1CCCCC1)NC(=O)[C@@H](CC(=O)N(CC(=O)N(C)CCC(=O)N1CCOCC1)[C@@H](C)c1ccccc1)Cc1csc(N)n1" has half-life at least equal to 20 min.
Reply: NOT MET

Task item: In plain terms: is recorded half-life at least 20 min for "CC(C)C[C@H](O)[C@H](O)[C@H](CC1CCCCC1)NC(=O)[C@@H](CC(=O)N(CC(=O)N(C)CCc1ccccn1)CC1CCCCC1)Cc1csc(N)n1" ?
Reply: MET

Task item: Item "CC(C)C[C@H](O)[C@H](O)[C@H](CC1CCCCC1)NC(=O)[C@@H](CC(=O)N(CC(=O)N(C)CCc1ccccn1)CC1CCCCCC1)Cc1csc(N)n1" with half-life of 20 min or above?
Reply: MET

Task item: Does the compound "CC(C)C[C@H](O)[C@H](O)[C@H](CC1CCCCC1)NC(=O)[C@@H](CC(=O)N(CC(=O)N(C)CCc1ccccn1)[C@@H](C)c1ccccc1)Cc1csc(N)n1" have recorded half-life that is 20 min or more?
Reply: NOT MET

Task item: Does half-life meet or surpass 20 min for "CC(C)C[C@H](O)[C@H](O)[C@H](CC1CCCCC1)NC(=O)[C@@H](CC(=O)N(CC(=O)N(C)CCN1CCOCC1)[C@@H](C)c1ccccc1)Cc1csc(N)n1" ?
Reply: NOT MET

Task item: Record "CC(C)C[C@H](O)[C@H](O)[C@H](CC1CCCCC1)NC(=O)[C@@H](CC(=O)N(CC(=O)N(C)CCN(C)C(=O)N1CCOCC1)[C@@H](C)c1ccccc1)Cc1csc(N)n1" ; criterion: half-life no lower than 20 min. Met?
Reply: NOT MET

* * *

Molecular target: Renin (Homo sapiens)
Assay: Component […] rate constant by the compound against Renin was determined
assay_metric: k on (M⁻¹ s⁻¹)
Provide the reading as a plain figure in M⁻¹ s⁻¹.

Entry "CC(C)C[C@H](O)[C@H](O)[C@H](CC1CCCCC1)NC(=O)[C@@H](CC(=O)N(CC(=O)N(C)CCN1CCOCC1)[C@@H](C)c1ccccc1)Cc1csc(N)n1" — recorded k on = 2.07e+06

The value of k on measured for the compound "CC(C)C[C@H](O)[C@H](O)[C@H](CC1CCCCC1)NC(=O)[C@@H](CC(=O)N(CC(=O)N(C)CCc1ccccn1)CC1(C)CCCCC1)Cc1csc(N)n1" turned out to be 1.22e+07

Measured k on, "CC(C)C[C@H](O)[C@H](O)[C@H](CC1CCCCC1)NC(=O)[C@@H](CC(=O)N(CC(=O)N(C)CCC(=O)N1CCOCC1)[C@@H](C)c1ccccc1)Cc1csc(N)n1" : 2e+06

In plain terms, "CC(C)C[C@H](O)[C@H](O)[C@H](CC1CCCCC1)NC(=O)[C@@H](CC(=O)N(CC(=O)N(C)CCc1ccccn1)CC1CCCCC1)Cc1csc(N)n1" has a documented k on of 5.93e+06

So for "CC(C)C[C@H](O)[C@H](O)[C@H](CC1CCCCC1)NC(=O)[C@@H](CC(=O)N(CC(=O)N(C)CCc1ccccn1)[C@@H](C)c1ccccc1)Cc1csc(N)n1" , the logged k on turned out to be 6.68e+06

"CC(C)C[C@H](O)[C@H](O)[C@H](CC1CCCCC1)NC(=O)[C@@H](CC(=O)N(CC(=O)N(C)CCN(C)C(=O)N1CCOCC1)[C@@H](C)c1ccccc1)Cc1csc(N)n1" yielded k on of 5.43e+06

compound "COC1(CN(CC(=O)N(C)CCc2ccccn2)C(=O)C[C@@H](Cc2csc(N)n2)C(=O)N[C@@H](CC2CCCCC2)[C@@H](O)[C@@H](O)CC(C)C)CCCCC1" , k on observed: 2.28e+06

Field k on (entry "CC(C)C[C@H](O)[C@H](O)[C@H](CC1CCCCC1)NC(=O)[C@@H](CC(=O)N(CC(=O)N(C)CCc1ccccn1)CC1CCCCCC1)Cc1csc(N)n1" ) reads 8.63e+06

* * *

Biological target: Renin (Homo sapiens) (UniProt P00797)
Sequence (whole entry): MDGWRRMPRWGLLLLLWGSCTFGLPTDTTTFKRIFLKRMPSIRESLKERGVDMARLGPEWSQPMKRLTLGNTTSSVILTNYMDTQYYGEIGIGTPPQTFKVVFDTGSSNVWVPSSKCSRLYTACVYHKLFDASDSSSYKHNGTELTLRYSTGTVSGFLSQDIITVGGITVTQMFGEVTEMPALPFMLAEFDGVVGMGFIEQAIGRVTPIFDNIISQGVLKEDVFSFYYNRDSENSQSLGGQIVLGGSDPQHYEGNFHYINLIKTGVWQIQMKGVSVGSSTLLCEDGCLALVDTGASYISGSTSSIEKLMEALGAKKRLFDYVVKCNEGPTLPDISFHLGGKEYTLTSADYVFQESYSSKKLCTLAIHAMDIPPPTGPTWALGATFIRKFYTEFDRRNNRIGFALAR
Assay: Component […] rate constant by the compound against Renin was determined
Set-up: unit not given here
Answer no (0) if Koff is under 0.0006, and yes (1) if it is 0.0006 or more.

Task item: Confirm if Koff reported for the molecule "CC(C)C[C@H](O)[C@H](O)[C@H](CC1CCCCC1)NC(=O)[C@@H](CC(=O)N(CC(=O)N(C)CCc1ccccn1)[C@@H](C)c1ccccc1)Cc1csc(N)n1" is 0.0006 or above.
Reply: yes (1)

Task item: hey, is Koff for this one >= 0.0006? "CC(C)C[C@H](O)[C@H](O)[C@H](CC1CCCCC1)NC(=O)[C@@H](CC(=O)N(CC(=O)N(C)CCc1ccccn1)CC1CCCCC1)Cc1csc(N)n1"
Reply: no (0)

Task item: Check the entry "CC(C)C[C@H](O)[C@H](O)[C@H](CC1CCCCC1)NC(=O)[C@@H](CC(=O)N(CC(=O)N(C)CCN(C)C(=O)N1CCOCC1)[C@@H](C)c1ccccc1)Cc1csc(N)n1" : does Koff equal or exceed 0.0006?
Reply: yes (1)

Task item: Is reported Koff greater than or equal to 0.0006 here: "CC(C)C[C@H](O)[C@H](O)[C@H](CC1CCCCC1)NC(=O)[C@@H](CC(=O)N(CC(=O)N(C)CCC(=O)N1CCOCC1)[C@@H](C)c1ccccc1)Cc1csc(N)n1"
Reply: yes (1)

Task item: Determine whether this molecule has Koff no lower than 0.0006: "COC1(CN(CC(=O)N(C)CCc2ccccn2)C(=O)C[C@@H](Cc2csc(N)n2)C(=O)N[C@@H](CC2CCCCC2)[C@@H](O)[C@@H](O)CC(C)C)CCCCC1"
Reply: yes (1)

Task item: Given "CC(C)C[C@H](O)[C@H](O)[C@H](CC1CCCCC1)NC(=O)[C@@H](CC(=O)N(CC(=O)N(C)CCc1ccccn1)CC1(C)CCCCC1)Cc1csc(N)n1" , state whether its Koff is at least 0.0006.
Reply: no (0)

Task item: API: above_or_equal(metric=Koff, cutoff=0.0006) for item "CC(C)C[C@H](O)[C@H](O)[C@H](CC1CCCCC1)NC(=O)[C@@H](CC(=O)N(CC(=O)N(C)CCN1CCOCC1)[C@@H](C)c1ccccc1)Cc1csc(N)n1"
Reply: yes (1)

Task item: Is Koff for "CC(C)C[C@H](O)[C@H](O)[C@H](CC1CCCCC1)NC(=O)[C@@H](CC(=O)N(CC(=O)N(C)CCc1ccccn1)CC1CCCCCC1)Cc1csc(N)n1" at or above 0.0006?
Reply: no (0)

Source: ChEMBL document CHEMBL1128576
